readoutType: CC50

-- ask Test system CEM cells; read-out CC50; what value for NCC(N)=O [G-NH2, glycinamide] ?
-- reply > 2 mM

###

System: CEM cells
pEC50: −log10 of the molar value.
readoutType: pEC50

-- ask What value of pEC50 has been recorded for this entry: NCC(N)=O [G-NH2, glycinamide]
-- reply < 2.70

###

methodDescription: Microdose study of 14C-AlphaHGA in healthy volunteers, plasma pharmacokinetics (AMS)
Assay type: in vivo, human
experimentalSetup: plasma, Route po, Mean
Description: In this example, the pharmacokinetics (PK) and oral bioavailability of AlphaHGA in adult healthy volunteers following a single ‘microdose’ in a sequence-randomized, cross-over study design (two periods 7 days apart) was determined. […] For both oral and IV doses subjects were administered 100 nCi (3.7 Kbq) of alphaHGA, which was determined to contain 1.602888×10ˆ6 fmol of ^14C. […] Plasma specimens (30 μL) were analyzed directly via the combustive procedure without further chemical manipulation. […]
Counter-ions that a name gives are not always drawn.
readoutType: Cmax (nM)
Write the value in nM as a bare number.

-- ask What value of Cmax has been recorded for this entry: NC(=O)C(N)O (stereo not drawn) [AlphaHGA, α-Hydroxy-glycinamide hydrochloride]
-- reply 0.0507
